# Test system: Mus musculus
# Assay explanation: Ability to reverse electroconvulsive shock (ECS) induced amnesia in mice, at a dose of 1 mg/Kg administered perorally
# Assay type: functional
I'd be grateful if you could share measured Reversal for these entries.
Field: numeric (%). Do not append units.

Q: // lookup Reversal | system=Mus musculus | key= O=C1CCC(/C=C/C(=O)OCc2ccccc2)N1 (stereo not given)
Ans: 0

Q: // lookup Reversal | system=Mus musculus | key= O=C1CCC2CCC(O)N12 (stereo not given)
Ans: 19

Q: // lookup Reversal | system=Mus musculus | key= COC(=O)CCSC1CCC(=O)N1 (stereo not given)
Ans: 53

Q: // lookup Reversal | system=Mus musculus | key= O=C(O)CSC1CCC(=O)N1 (stereo not given)
Ans: 64

Q: // lookup Reversal | system=Mus musculus | key= CCOC(=O)CCSC1CCC(=O)N1 (stereo not given)
Ans: 49

Source: ChEMBL document CHEMBL1123693
